- Test system: NCI-H2085
- experimental_protocol: relative viability (nuclei count vs DMSO), 5 days (fraction); higher = more cells survive
- test_context: first compound 0.02 µM
Kindly apply the following: 1.0 if relative viability is less than 0.4, 0.0 in every other case.

Completed entries (count: 3):
{"compound": "CC(=O)O[C@@]12CO[C@@H]1C[C@H](O)[C@@]1(C)C(=O)[C@H](O)C3=C(C)[C@@H](OC(=O)[C@H](O)[C@@H](NC(=O)OC(C)(C)C)c4ccccc4)C[C@@](O)([C@@H](OC(=O)c4ccccc4)[C@H]21)C3(C)C [Docetaxel] + COc1cccc2cc(-c3nc([C@H]4CC[C@H](C(=O)O)CC4)n4ncnc(N)c34)[nH]c12 [OSI-027] (partner 0.5 µM)", "classification": 1.0}
{"compound": "CC(=O)O[C@@]12CO[C@@H]1C[C@H](O)[C@@]1(C)C(=O)[C@H](O)C3=C(C)[C@@H](OC(=O)[C@H](O)[C@@H](NC(=O)OC(C)(C)C)c4ccccc4)C[C@@](O)([C@@H](OC(=O)c4ccccc4)[C@H]21)C3(C)C [Docetaxel] + O=C(c1cc(Cc2n[nH]c(=O)c3ccccc23)ccc1F)N1CCN(C(=O)C2CC2)CC1 [Olaparib] (partner 8 µM)", "classification": 1.0}
{"compound": "CC(=O)O[C@@]12CO[C@@H]1C[C@H](O)[C@@]1(C)C(=O)[C@H](O)C3=C(C)[C@@H](OC(=O)[C@H](O)[C@@H](NC(=O)OC(C)(C)C)c4ccccc4)C[C@@](O)([C@@H](OC(=O)c4ccccc4)[C@H]21)C3(C)C [Docetaxel] + O=C(CCCCCCC(=O)Nc1ccccc1)NO [Vorinostat] (partner 1 µM)", "classification": 0.0}

Query string: Could you please tell me whether relative viability recorded for CC(=O)O[C@@]12CO[C@@H]1C[C@H](O)[C@@]1(C)C(=O)[C@H](O)C3=C(C)[C@@H](OC(=O)[C@H](O)[C@@H](NC(=O)OC(C)(C)C)c4ccccc4)C[C@@](O)([C@@H](OC(=O)c4ccccc4)[C@H]21)C3(C)C [Docetaxel] + Cc1nc(Nc2ncc(C(=O)Nc3c(C)cccc3Cl)s2)cc(N2CCN(CCO)CC2)n1 [Dasatinib] (partner 0.075 µM) is less than 0.4?
Result string: 1.0

Query string: Could you please tell me whether relative viability recorded for CC(=O)O[C@@]12CO[C@@H]1C[C@H](O)[C@@]1(C)C(=O)[C@H](O)C3=C(C)[C@@H](OC(=O)[C@H](O)[C@@H](NC(=O)OC(C)(C)C)c4ccccc4)C[C@@](O)([C@@H](OC(=O)c4ccccc4)[C@H]21)C3(C)C [Docetaxel] + C[C@@H](Oc1cc(-c2cnn(C3CCNCC3)c2)cnc1N)c1c(Cl)ccc(F)c1Cl [Crizotinib] (partner 1 µM) is less than 0.4?
Result string: 1.0

Query string: Could you please tell me whether relative viability recorded for CC(=O)O[C@@]12CO[C@@H]1C[C@H](O)[C@@]1(C)C(=O)[C@H](O)C3=C(C)[C@@H](OC(=O)[C@H](O)[C@@H](NC(=O)OC(C)(C)C)c4ccccc4)C[C@@](O)([C@@H](OC(=O)c4ccccc4)[C@H]21)C3(C)C [Docetaxel] + COc1cc2c(Oc3ccc(NC(=O)C4(C(=O)Nc5ccc(F)cc5)CC4)cc3F)ccnc2cc1OCCCN1CCOCC1 [Foretinib] (partner 0.25 µM) is less than 0.4?
Result string: 0.0
